- TEST NAME: Binding affinity to T-T mismatched duplex DNA (unknown origin) by isothermal calorimetric titration method
OBSERVABLE: Kd (nM)
Give just the number in nM; leave the unit off.

Ask | Determine from records and report Kd for `COc1ccc2nc3cc(Cl)ccc3c(NCCCCNc3nc(N)nc(N)n3)c2c1`
Reply | 510

* * *

- SYSTEM: Quadruplex DNA
- TEST NAME: Binding affinity to human telomeric G-quadruplex DNA in Na+ buffer at 9.4 uM UV-vis titration analysis
- Assay type: nucleic-acid assay
OBSERVABLE: Kd (µM)
Numbers only here, please. The scale is µM.

Ask | Tell me its Kd given `COc1ccc2nc3cc(Cl)ccc3c(NCCCCNc3nc(N)nc(CCSC)n3)c2c1` as the entry.
Reply | 2.21

* * *

- SYSTEM: Quadruplex DNA
- TEST NAME: Binding affinity to human telomeric G-quadruplex DNA in K+ buffer at 0.2 uM after 15 mins by spectrofluorometric method
- Assay type: nucleic-acid assay
OBSERVABLE: pKd
Scale for pKd: -log10 of concentration given in mol/L; no unit attached.

> print(dat)
                            compound.smiles  observable  recorded.value
1  COc1ccc2nc3cc(Cl)ccc3c(NCCCCNc3nc(N)nc(CCSC)n3)c2c1         pKd            6.21

Shift focus to the following entry.
Ask | Indicate the recorded pKd value for this compound: `CSCCc1nc(N)nc(NCCCCNc2c3ccccc3nc3c(C(=O)NCCCN(C)C)cccc23)n1`
Reply | 6.36
